molecular target: GABAA α2θ3γ2L (Homo sapiens, UniProt P18507+P28472+P47869); construct: expressed in transfected cells; assay: SyncroPatch automated patch-clamp electrophysiology, PAM mode; format: cell-based; settings: PAM mode, GABA EC10-20, 6-point curve up to 10 μM; EC50 called extrapolated
Sequence (P47869 29-451): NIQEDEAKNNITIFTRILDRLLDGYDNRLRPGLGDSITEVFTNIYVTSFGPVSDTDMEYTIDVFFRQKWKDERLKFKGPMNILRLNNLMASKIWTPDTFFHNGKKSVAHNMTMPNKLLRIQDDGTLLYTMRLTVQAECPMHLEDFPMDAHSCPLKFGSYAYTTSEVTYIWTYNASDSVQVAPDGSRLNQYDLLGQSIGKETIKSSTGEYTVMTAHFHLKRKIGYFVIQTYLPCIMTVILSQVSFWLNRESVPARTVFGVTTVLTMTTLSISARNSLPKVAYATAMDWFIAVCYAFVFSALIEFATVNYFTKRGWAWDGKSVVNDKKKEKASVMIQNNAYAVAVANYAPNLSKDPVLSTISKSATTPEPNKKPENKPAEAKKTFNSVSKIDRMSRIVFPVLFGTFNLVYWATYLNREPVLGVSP
Sequence (P28472 26-473): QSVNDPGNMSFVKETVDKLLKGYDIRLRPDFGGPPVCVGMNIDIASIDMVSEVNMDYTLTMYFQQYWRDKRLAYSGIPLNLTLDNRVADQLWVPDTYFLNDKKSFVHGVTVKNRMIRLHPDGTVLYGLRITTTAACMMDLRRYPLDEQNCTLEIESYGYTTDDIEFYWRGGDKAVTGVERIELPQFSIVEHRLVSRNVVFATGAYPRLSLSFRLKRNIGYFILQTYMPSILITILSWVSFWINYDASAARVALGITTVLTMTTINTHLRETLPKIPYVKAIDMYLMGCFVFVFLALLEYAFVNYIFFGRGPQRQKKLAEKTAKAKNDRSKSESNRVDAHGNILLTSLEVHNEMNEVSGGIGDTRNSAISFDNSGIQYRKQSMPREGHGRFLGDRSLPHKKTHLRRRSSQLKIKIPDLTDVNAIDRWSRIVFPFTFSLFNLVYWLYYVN
Sequence (P18507 40-475): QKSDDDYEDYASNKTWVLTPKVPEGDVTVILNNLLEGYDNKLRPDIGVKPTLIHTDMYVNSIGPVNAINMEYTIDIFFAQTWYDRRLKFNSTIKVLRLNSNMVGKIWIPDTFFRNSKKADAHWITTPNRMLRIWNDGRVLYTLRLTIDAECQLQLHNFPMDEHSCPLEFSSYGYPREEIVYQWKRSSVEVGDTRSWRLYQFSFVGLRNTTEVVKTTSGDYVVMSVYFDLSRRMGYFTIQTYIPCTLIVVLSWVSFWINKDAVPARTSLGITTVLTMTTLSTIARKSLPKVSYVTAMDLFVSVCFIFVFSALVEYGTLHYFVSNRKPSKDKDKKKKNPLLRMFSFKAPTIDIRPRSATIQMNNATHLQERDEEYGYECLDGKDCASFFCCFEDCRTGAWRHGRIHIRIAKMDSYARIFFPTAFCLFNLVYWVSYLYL
measure: Potency, α2βy, *EC50

compound="O=c1cc(-c2cccc([N+](=O)[O-])c2)oc2ccc(Br)cc12 [6-bromo-3′-nitroflavone, reference compound]" tgt="GABAA α2θ3γ2L (Homo sapiens, UniProt P18507+P28472+P47869)" result=N.R.
compound="O=C1c2cc(Br)ccc2OC(c2ccccc2)C1(CO)CO (stereo not shown)" tgt="GABAA α2θ3γ2L (Homo sapiens, UniProt P18507+P28472+P47869)" result=N.R.

###

target: GABAA α4θ3δ (Homo sapiens, UniProt O14764+P28472+P48169); assay: SyncroPatch automated patch-clamp electrophysiology, PAM mode
Sequence (P48169 36-554, one chain of several): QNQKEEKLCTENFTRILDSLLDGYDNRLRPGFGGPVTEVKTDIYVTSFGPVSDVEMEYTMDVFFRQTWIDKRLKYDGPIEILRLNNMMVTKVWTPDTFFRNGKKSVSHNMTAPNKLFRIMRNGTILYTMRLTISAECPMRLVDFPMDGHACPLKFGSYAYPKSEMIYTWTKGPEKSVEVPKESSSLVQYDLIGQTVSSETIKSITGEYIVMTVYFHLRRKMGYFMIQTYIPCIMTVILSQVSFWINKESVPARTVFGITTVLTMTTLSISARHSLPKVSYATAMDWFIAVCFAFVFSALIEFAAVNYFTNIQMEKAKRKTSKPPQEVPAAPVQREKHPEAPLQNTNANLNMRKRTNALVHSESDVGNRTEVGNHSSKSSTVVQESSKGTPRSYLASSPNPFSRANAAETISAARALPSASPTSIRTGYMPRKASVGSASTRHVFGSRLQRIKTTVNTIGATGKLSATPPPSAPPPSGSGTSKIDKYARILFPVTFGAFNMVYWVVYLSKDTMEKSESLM
Sequence (O14764 17-452 limits assumed, one chain of several): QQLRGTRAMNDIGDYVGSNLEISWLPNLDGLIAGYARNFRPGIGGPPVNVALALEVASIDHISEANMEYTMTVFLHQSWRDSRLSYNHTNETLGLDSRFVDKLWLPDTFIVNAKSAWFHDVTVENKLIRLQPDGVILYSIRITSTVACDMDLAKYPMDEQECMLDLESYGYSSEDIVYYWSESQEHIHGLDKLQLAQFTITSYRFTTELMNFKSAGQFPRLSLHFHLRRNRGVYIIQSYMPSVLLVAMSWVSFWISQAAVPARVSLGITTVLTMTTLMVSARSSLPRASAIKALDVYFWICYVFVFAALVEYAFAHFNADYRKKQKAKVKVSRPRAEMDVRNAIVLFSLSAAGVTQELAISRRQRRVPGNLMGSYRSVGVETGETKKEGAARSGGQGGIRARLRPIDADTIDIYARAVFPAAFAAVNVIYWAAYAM
pIC50: −log10 of the molar value.
measure: pIC50

Given the compound O=c1cc(-c2cccc([N+](=O)[O-])c2)oc2ccc(Br)cc12 [6-bromo-3′-nitroflavone, reference compound] , write its reported pIC50.
< 5.00

###

biological target: GABAA α2θ3γ2L (Homo sapiens, UniProt P18507+P28472+P47869); test: SyncroPatch automated patch-clamp electrophysiology, PAM mode; details: PAM mode, GABA EC10-20, 6-point curve up to 10 μM; EC50 called extrapolated; read-out: Potency, α2βy, *EC50
Quick reference for pEC50 among some compounds
Reminder that pEC50 is minus the log10 of a molar concentration.

Return reported pEC50 for target or system GABAA α2θ3γ2L (Homo sapiens, UniProt P18507+P28472+P47869), item O=C1NC(c2cccc([N+](=O)[O-])c2)Oc2ccc(Br)cc21 (centres unmarked) [EC2-118] .
6.90

Return reported pEC50 for target or system GABAA α2θ3γ2L (Homo sapiens, UniProt P18507+P28472+P47869), item O=C1c2ccccc2OC(c2cccc([N+](=O)[O-])c2)C1(CO)CO (centres unmarked) [EC2-104] .
4.93

###

target: GABAA α1β2γ2L (Homo sapiens, UniProt P14867+P18507+P47870); construct: expressed in transfected cells; test: SyncroPatch automated patch-clamp electrophysiology, PAM mode; assay type: cell-based; conditions: PAM mode, GABA EC10-20, 6-point curve up to 10 μM; EC50 called extrapolated
Sequence (P14867 28-456, one chain of several): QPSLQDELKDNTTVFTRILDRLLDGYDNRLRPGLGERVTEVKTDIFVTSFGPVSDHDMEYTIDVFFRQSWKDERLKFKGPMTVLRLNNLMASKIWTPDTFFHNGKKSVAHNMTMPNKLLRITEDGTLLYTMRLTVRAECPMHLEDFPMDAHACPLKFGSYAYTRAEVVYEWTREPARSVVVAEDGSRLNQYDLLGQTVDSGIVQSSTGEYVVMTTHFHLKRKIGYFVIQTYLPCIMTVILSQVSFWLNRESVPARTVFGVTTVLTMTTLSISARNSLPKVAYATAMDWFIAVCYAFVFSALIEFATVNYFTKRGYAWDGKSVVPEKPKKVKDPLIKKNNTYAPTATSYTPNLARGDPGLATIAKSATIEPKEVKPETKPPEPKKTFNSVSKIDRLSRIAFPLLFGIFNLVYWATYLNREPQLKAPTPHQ
Sequence (P47870 25-512 limits assumed, one chain of several): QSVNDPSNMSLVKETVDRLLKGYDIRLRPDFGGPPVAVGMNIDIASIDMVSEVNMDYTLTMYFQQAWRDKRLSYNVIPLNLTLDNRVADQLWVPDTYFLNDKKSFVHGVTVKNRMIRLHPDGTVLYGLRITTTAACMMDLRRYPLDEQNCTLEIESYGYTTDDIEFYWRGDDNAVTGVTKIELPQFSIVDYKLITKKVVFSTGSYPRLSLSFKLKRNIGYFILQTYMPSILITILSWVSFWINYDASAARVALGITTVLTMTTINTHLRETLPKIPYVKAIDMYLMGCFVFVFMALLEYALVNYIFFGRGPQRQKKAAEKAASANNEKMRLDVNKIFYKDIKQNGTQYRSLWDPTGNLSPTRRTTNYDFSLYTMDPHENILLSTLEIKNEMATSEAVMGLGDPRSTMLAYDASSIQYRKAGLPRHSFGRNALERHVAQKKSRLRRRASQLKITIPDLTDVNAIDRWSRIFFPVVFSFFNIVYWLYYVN
measure: Potency, α1βy, *EC50

compound="O=C1c2ccccc2OC(c2cccc([N+](=O)[O-])c2)C1(CO)CO (stereo not shown)" measure="Potency, α1βy, *EC50" result=N.R.
compound="O=C1c2cc(Br)ccc2OC(c2ccccc2)C1(CO)CO (stereo not shown)" measure="Potency, α1βy, *EC50" result=N.R.

###

target: GABAA α1β2γ2L (Homo sapiens, UniProt P14867+P18507+P47870); assay: SyncroPatch automated patch-clamp electrophysiology, PAM mode; conditions: PAM mode, GABA EC10-20, 6-point curve up to 10 μM; EC50 called extrapolated; read-out: Potency, α1βy, *EC50
measure: pEC50
Reminder that pEC50 is minus the log10 of a molar concentration.

Given the compound O=C1NC(c2cccc([N+](=O)[O-])c2)Oc2ccc(Br)cc21 (stereo not shown) , write its reported pEC50.
6.87

###

target: GABAA α5θ3γ2L (Homo sapiens, UniProt P18507+P28472+P31644); construct: expressed in transfected cells; experiment: SyncroPatch automated patch-clamp electrophysiology, PAM mode; format: cell-based; settings: PAM mode, GABA EC10-20, 6-point curve up to 10 μM
Sequence (P31644 32-462, one chain of several): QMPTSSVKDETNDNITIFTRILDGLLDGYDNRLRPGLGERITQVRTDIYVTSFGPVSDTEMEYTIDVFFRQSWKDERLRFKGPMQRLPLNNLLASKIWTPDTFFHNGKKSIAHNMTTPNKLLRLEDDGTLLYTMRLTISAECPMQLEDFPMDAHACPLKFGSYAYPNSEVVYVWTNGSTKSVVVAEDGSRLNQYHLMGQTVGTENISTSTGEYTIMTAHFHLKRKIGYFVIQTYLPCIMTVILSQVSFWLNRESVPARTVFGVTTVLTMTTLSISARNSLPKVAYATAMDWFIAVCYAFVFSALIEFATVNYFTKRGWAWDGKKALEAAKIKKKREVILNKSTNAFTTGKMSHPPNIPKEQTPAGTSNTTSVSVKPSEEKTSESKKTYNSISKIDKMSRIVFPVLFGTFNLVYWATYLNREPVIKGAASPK
measure: Potency, α5βy, *EC50

compound="O=C1NC(c2cccc([N+](=O)[O-])c2)Oc2ccc(Br)cc21 (centres unmarked)" tgt="GABAA α5θ3γ2L (Homo sapiens, UniProt P18507+P28472+P31644)" measure="Potency, α5βy, *EC50" result=N.R.
compound="O=C1c2ccccc2OC(c2cccc([N+](=O)[O-])c2)C1(CO)CO (centres unmarked)" tgt="GABAA α5θ3γ2L (Homo sapiens, UniProt P18507+P28472+P31644)" measure="Potency, α5βy, *EC50" result=N.R.
compound="O=c1cc(-c2cccc([N+](=O)[O-])c2)oc2ccc(Br)cc12 [6-bromo-3′-nitroflavone, reference compound]" tgt="GABAA α5θ3γ2L (Homo sapiens, UniProt P18507+P28472+P31644)" measure="Potency, α5βy, *EC50" result=N.R.

###

target: GABAA α5θ3γ2L (Homo sapiens, UniProt P18507+P28472+P31644); experiment: SyncroPatch automated patch-clamp electrophysiology, PAM mode; details: PAM mode, GABA EC10-20, 6-point curve up to 10 μM; read-out: Potency, α5βy, *EC50
measure: EC50 (µM)
Write down the numeric answer in µM and omit the unit.

Given the molecule O=C1c2cc(Br)ccc2OC(c2ccccc2)C1(CO)CO (stereo not shown) [EC2-52] , write its reported EC50.
1.92

###

target: GABAA α4θ3δ (Homo sapiens, UniProt O14764+P28472+P48169); construct: expressed in transfected cells; assay: SyncroPatch automated patch-clamp electrophysiology, PAM mode; type: cell-based; conditions: PAM mode, GABA EC10-20, 6-point curve up to 10 μM
measure: Potency, α4βδ (also printed α4βy), *EC50

molecule="O=C1c2cc(Br)ccc2OC(c2ccccc2)C1(CO)CO (stereo not shown)" measure="Potency, α4βδ (also printed α4βy), *EC50" result=N.R.
molecule="O=C1NC(c2cccc([N+](=O)[O-])c2)Oc2ccc(Br)cc21 (stereo not shown)" measure="Potency, α4βδ (also printed α4βy), *EC50" result=N.R.

###

target: GABAA α1β2γ2L (Homo sapiens, UniProt P14867+P18507+P47870); assay: SyncroPatch automated patch-clamp electrophysiology, PAM mode
measure: IC50 (nM)
Write down the numeric answer in nM and omit the unit.

Given the molecule O=c1cc(-c2cccc([N+](=O)[O-])c2)oc2ccc(Br)cc12 [6-bromo-3′-nitroflavone, reference compound] , write its reported IC50.
5.9
